{"compound": "C[C@@]12CC[C@@H]3[C@@](CC[C@H]4[C@@]3(C)CCC[C@@]4(C)C(=O)OCC(=O)Nc3cccc(F)c3)(CC1=O)C2 [Compound 4f]", "melting point": "144 to 145 °C"}
{"compound": "C[C@@]12CC[C@@H]3[C@@](CC[C@H]4[C@@]3(C)CCC[C@@]4(C)C(=O)OCC(=O)N3CCN(c4ccccc4)CC3)(CC1=O)C2 [Compound 2c]", "melting point": "143 to 144 °C"}
{"compound": "C[C@@]12CC[C@@H]3[C@@](CC[C@H]4[C@@]3(C)CCC[C@@]4(C)C(=O)OCC(=O)Nc3ccc(Cl)cc3)(CC1=O)C2 [Compound 4d]", "melting point": "140 to 142 °C"}
{"compound": "CCOP(=O)(OCC)C(NC(=O)COC(=O)[C@]1(C)CCC[C@@]2(C)[C@@H]3CC[C@@]4(C)C[C@]3(CC[C@@H]21)CC4=O)c1ccccc1 (stereo partly drawn) [Compound 6a]", "melting point": "156 to 157 °C"}
{"compound": "CN(C)CCNC(=O)[C@]1(C)CCC[C@@]2(C)[C@@H]3CC[C@@]4(C)C[C@]3(CC[C@@H]21)CC4=O [Compound 1b]", "melting point": "102 to 103 °C"}
{"compound": "CN1CCN(C(=O)COC(=O)[C@]2(C)CCC[C@@]3(C)[C@@H]4CC[C@@]5(C)C[C@]4(CC[C@@H]32)CC5=O)CC1 [Compound 2a]", "melting point": "112 to 113 °C"}
